Reported z-score values for a set of compounds
tested.on: NADPH oxidase 2 (Homo sapiens) (UniProt P04839)
Sequence (P04839 whole entry, looked up): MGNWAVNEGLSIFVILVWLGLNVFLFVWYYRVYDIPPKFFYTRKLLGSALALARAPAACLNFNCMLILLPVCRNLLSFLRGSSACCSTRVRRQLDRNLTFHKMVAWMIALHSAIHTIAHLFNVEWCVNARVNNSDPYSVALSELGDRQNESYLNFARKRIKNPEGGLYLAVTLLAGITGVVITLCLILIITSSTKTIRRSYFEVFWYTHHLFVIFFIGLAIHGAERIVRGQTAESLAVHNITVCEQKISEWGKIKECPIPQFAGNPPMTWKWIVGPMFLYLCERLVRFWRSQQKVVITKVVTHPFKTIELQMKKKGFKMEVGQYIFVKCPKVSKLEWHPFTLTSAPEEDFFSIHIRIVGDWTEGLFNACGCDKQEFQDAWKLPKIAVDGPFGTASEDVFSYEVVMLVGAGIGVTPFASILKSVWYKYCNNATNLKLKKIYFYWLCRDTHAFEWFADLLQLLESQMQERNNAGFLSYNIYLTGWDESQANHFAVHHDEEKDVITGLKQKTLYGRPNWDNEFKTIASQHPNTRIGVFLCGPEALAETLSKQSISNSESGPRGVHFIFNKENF
assay.notes: compounds shifting NOX2 Amplex Red fluorescence – cell-based, HEK293-NOX2, PMA-stimulated, NOX inhibitor project, primary screen (AID 1159); note: test concentration not given here
settings: 45 min, higher = more signal, called active from +8 up or from −8 down
readout.type: z-score

compound: CN1C(=O)C2C=CC(C(O)c3ccccc3)N(N3CCCCC3)C2C1=O (stereo not drawn)
tested.on: NADPH oxidase 2 (Homo sapiens) (UniProt P04839)
readout.type: z-score
observed.measurement: -0.121

compound: Cc1ccc(S[C@]2(C(=O)NCC(C)C)CC(=O)N(Cc3cc(C(F)(F)F)cc(C(F)(F)F)c3)[C@@H]2c2ccc(CO)cc2)cc1
tested.on: NADPH oxidase 2 (Homo sapiens) (UniProt P04839)
readout.type: z-score
observed.measurement: 1.73

compound: COc1ccccc1CN1C(=O)c2ccccc2[C@@]2(Cc3ccccc3N(CCCN(C)C)C2=O)[C@@H]1c1ccc(CO)cc1
tested.on: NADPH oxidase 2 (Homo sapiens) (UniProt P04839)
readout.type: z-score
observed.measurement: -0.841

compound: COCC(=C=CC[C@H](O)c1cccc(OCCO)c1)C[C@H](O)c1cc(Cl)cc(Cl)c1O
tested.on: NADPH oxidase 2 (Homo sapiens) (UniProt P04839)
readout.type: z-score
observed.measurement: -0.707

compound: CC[C@@H]1C=C(C(=O)O)[C@H](c2ccc(C)cc2)N1S(=O)(=O)c1ccc(C)cc1
tested.on: NADPH oxidase 2 (Homo sapiens) (UniProt P04839)
readout.type: z-score
observed.measurement: 0.587

compound: O=C1C2C=CC(C(O)c3ccc(F)cc3)N(Nc3ccc([N+](=O)[O-])cc3)C2C(=O)N1c1ccccc1 (stereo not drawn)
tested.on: NADPH oxidase 2 (Homo sapiens) (UniProt P04839)
readout.type: z-score
observed.measurement: -0.95

compound: CN(C)CCCCCCNC(=O)[C@@H]1C[C@@H]2C(=O)N3CCC[C@H]3C(=O)N2[C@@H]1c1ccc(O)cc1
tested.on: NADPH oxidase 2 (Homo sapiens) (UniProt P04839)
readout.type: z-score
observed.measurement: -0.245

compound: [N-]=[N+]=NCc1ccccc1[C@@H]1OC(c2ccc(OCCCO)cc2)=N[C@]1(CCS(=O)(=O)c1ccccc1)C(N)=O
tested.on: NADPH oxidase 2 (Homo sapiens) (UniProt P04839)
readout.type: z-score
observed.measurement: -0.282

---

tested.on: Fibroblast growth factor 2 (Homo sapiens) (UniProt P09038)
Sequence (P09038 whole entry, looked up): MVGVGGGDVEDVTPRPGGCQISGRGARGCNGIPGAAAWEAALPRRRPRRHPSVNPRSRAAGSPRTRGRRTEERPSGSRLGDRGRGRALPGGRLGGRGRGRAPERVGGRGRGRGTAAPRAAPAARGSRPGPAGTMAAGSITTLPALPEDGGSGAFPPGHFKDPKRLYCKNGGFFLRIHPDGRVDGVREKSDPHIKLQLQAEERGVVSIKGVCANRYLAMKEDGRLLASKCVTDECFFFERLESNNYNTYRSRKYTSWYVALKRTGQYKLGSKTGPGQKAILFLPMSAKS
assay.notes: basic fibroblast growth factor binding to printed compounds – biochemical, small-molecule microarray, 635/667 nm fluorescence, primary screen (AID 1133)
settings: FGF2, fluorescence 635/667, higher = more signal

smiles.string: CC(C)CN1C(=O)[C@@]2(c3ccc([N+](=O)[O-])cc3)CC(=O)N(C3CCCCC3)[C@@H]2c2ccc(CO)cc21
composite z-score: -0.875

smiles.string: CC#CC(=O)Oc1ccc(Br)cc1C=CC(=O)OCC
composite z-score: -0.0698

smiles.string: CCCCCCc1nc(-c2ccc(-c3ccc(Cl)c(Cl)c3)o2)cc2c1[Si](C(C)C)(C(C)C)O[C@H]2c1ccccc1
composite z-score: -0.434

---

assay.notes: budding yeast growth changes without added modifier – OD600, strain BY4716, 24 h, basal condition, primary screen (AID 1173)
settings: S. cerevisiae BY4716 growth, OD600, 24 h, called active from +8 up or from −8 down
The source made the active and inactive calls.
Possible outcomes: active, inactive

compound: CCN(CC)c1ccc(N2CC=CC34O[C@@H]5C=CCOC(=O)[C@@H]5[C@H]3C(=O)N(CCCCCCO)[C@@H]4C2=O)cc1 (some centres undefined)
qualitative.label: inactive

compound: CCCC[C@@H]1C[C@H]1[C@@H](NC(=O)c1cccnc1)c1ccc(Cl)cc1
qualitative.label: inactive

compound: C#CCN(C/C=C/c1ccccc1)[C@H](CO)c1ccccc1
qualitative.label: active

compound: CCCCCCc1nc(-c2ccc(-c3ccc(Cl)c(Cl)c3)o2)cc2c1[Si](C(C)C)(C(C)C)O[C@H]2c1ccccc1
qualitative.label: inactive

---

Tested on: Noggin (protein binding on small-molecule microarray)
assay.notes: small molecules binding Noggin protein – biochemical, 635/667 nm fluorescence, primary screen (AID 1095);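 note: score merges 667 nm feature fluorescence with signal to noise over triplicate slides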
settings: 635 nm fluorescence, higher = more signal
Reported composite z-score values for a set of molecules

molecule: C=CCC(OC(C)=O)[C@@H]1[C@@H](N(Cc2ccc(-c3ccccc3)cc2)C(=O)Cc2ccc(F)cc2)c2cc(OCCCO)ccc2N1C(=O)c1ccc2ccccc2c1 (some centres undefined)
composite z-score: 0.289
--
molecule: COc1ccc([C@H]2OC[C@@H]3CCC(=O)N32)cc1
composite z-score: 0.397
--
molecule: CC(=O)n1cc(C(O)C2C=CC3C(=O)NC(=O)C3N2Nc2ccccn2)c2ccccc21 (centres undefined)
composite z-score: 0.187
--
molecule: CCOC(=O)C[C@H]1[C@H](OC(=O)c2ccc(C(=O)c3ccccc3)cc2)[C@@H](NC(=O)Cc2ccc(OC)cc2)c2cc(OCCCO)ccc2N1C(=O)c1ccc2ccccc2n1
composite z-score: 0.666
--
molecule: COC(=O)[C@@]1(Cc2ccc(OC)cc2)[C@H]2c3cc(C(=O)N4CCCC4)n(Cc4nc5ccccc5[nH]4)c3C[C@H]2CN1C(=O)c1ccccc1
composite z-score: -0.214
--
molecule: COCCOC(=O)N1C(=O)[C@@]2(c3cc(C#Cc4ccc(OC)cc4)ccc31)[C@H](c1ccc(O)cc1)N1[C@H](c3ccccc3)[C@H](c3ccccc3)OC(=O)[C@H]1[C@@H]2C(=O)Nc1nc2ccccc2s1
composite z-score: 1.09
--
molecule: CC(=CC1CCCCC1)[C@@H](NC(=O)c1cccnc1)c1ccc(-c2ccccc2)cc1
composite z-score: -0.18
--
molecule: COCCCNC(=O)[C@]1(Cc2ccccc2)N=C(c2ccc(OCCCO)cc2)O[C@@H]1c1ccccc1CN=[N+]=[N-]
composite z-score: 0.53
--
molecule: O=C1O[C@@H](c2ccccc2)[C@@H](c2ccccc2)N2[C@@H](c3ccc(OCCO)cc3)[C@]3(C(=O)Nc4ccc(C#CC5=CCCCC5)cc43)[C@@H](C(=O)N3CCCCCCC3)[C@H]12
composite z-score: 1.78
--
molecule: COCCCNC(=O)[C@@H]1c2ccccc2C(=O)N(Cc2ccccc2)[C@H]1c1ccc(CO)cc1
composite z-score: 0.525
--
molecule: C=C[C@H](C)[C@@H](OC(=O)Nc1ccc(SC)cc1)c1ccc(O)c2ccccc12
composite z-score: 0.936
--
molecule: O=C1O[C@H](c2ccccc2)[C@H](c2ccccc2)N2[C@H]1[C@@H](C(=O)NC[C@H](O)c1ccccc1)[C@]1(C(=O)Nc3ccccc31)[C@H]2c1ccc(O)cc1
composite z-score: 0.798
--
molecule: CC#CC(=O)Oc1ccc(Br)cc1C=CC(=O)OCC
composite z-score: -0.157
--
molecule: O=C1O[C@@H](c2ccccc2)[C@@H](c2ccccc2)N2[C@@H](c3ccc(OCCO)cc3)[C@]3(C(=O)Nc4ccc(C#CCCO)cc43)[C@@H](C(=O)NC[C@H](O)c3ccccc3)[C@H]12
composite z-score: 1.25

---

assay.notes: JC-1 mitochondrial signal, unstimulated myeloma cells – cell-based, JC-1 fluorescence, RPMI8226, 24 h, 100 nL compound, profiling panel (AID 1169); note: test concentration not given here
settings: JC-1 mitochondrial potential fluorescence, higher = more signal
readout.type: z-score

compound: NC(=O)[C@@H]1[C@H]2C(=O)O[C@H](c3ccccc3)[C@H](c3ccccc3)N2[C@H](c2ccc(OCCO)cc2)[C@@]12C(=O)Nc1ccc(C#CC3=CCCCC3)cc12
observed.measurement: -0.834

compound: O=C(O)[C@H]1C[C@H]2C(=O)N3CCC[C@H]3C(=O)N2[C@H]1c1ccc(O)cc1
observed.measurement: -0.703

compound: [N-]=[N+]=Nc1ccccc1[C@H]1OC(c2ccc(OCCCO)cc2)=N[C@@]1(Cc1ccccc1)C(=O)N1CCOCC1
observed.measurement: -1.09

compound: O=C1NC(=O)C2C1C=CC(C(O)C=Cc1ccc([N+](=O)[O-])cc1)N2Nc1ccc(Cl)cc1Cl (centres undefined)
observed.measurement: -1.02

---

assay.notes: resazurin metabolic signal in A549 cells – cell-based, resazurin fluorescence, 24 h, PK04 Diversity Set, profiling panel (AID 1171); note: test concentration not given here
settings: A549 viability, higher = more signal, called active from +8 up or from −8 down
Threshold -0.5: z-score strictly smaller gives Criterion met, otherwise Criterion not met.

compound: COC(=O)C[C@H]1O[C@@H](CCc2ccccc2)[C@@H](C)[C@@H]1[Si](C)(C)c1ccc(OC)cc1
qualitative.label: Criterion not met
//
compound: O=C1OCCC=C[C@H]2OC34C=CCN(CCN5CCOCC5)C(=O)[C@H]3N(CCCCCO)C(=O)[C@@H]4C12 (some centres not stated)
qualitative.label: Criterion not met
//
compound: COC(=O)[C@@]1(Cc2ccc(F)cc2)[C@H]2c3cc(C(=O)N(C)C)n(Cc4cc(C)n(C)n4)c3C[C@H]2CN1C(=O)c1ccccc1
qualitative.label: Criterion met
//
compound: [N-]=[N+]=Nc1ccccc1C[C@]1(C(=O)NCC(O)CO)N=C(c2ccc(OCCCO)cc2)O[C@H]1c1ccccc1 (some centres not stated)
qualitative.label: Criterion not met
//
compound: COCCOC(=O)N1C(=O)[C@@]2(c3cc(C#CC4(O)CCCCCC4)ccc31)[C@H](c1ccccc1OCCO)N1[C@H](c3ccccc3)[C@H](c3ccccc3)OC(=O)[C@H]1[C@@H]2C(=O)N1CCc2cc(OC)c(OC)cc2C1
qualitative.label: Criterion not met
//
compound: O=C(CS)NCCCCCNC(=O)[C@@H]1C[C@@H]2C(=O)NCC(=O)N2[C@@H]1c1ccc(O)cc1
qualitative.label: Criterion met
//
compound: C=CCN(Cc1ccccc1)C(=O)C(c1cccs1)N(C(=O)/C=C\C(=O)O)c1ccc(CCOCCO)cc1 (configuration not stated)
qualitative.label: Criterion met
